Value source: patent US4442044A

Tested on: Hemp Sesbania
EXPERIMENTAL_DETAILS: post-emergent herbicidal activity, greenhouse
Format: in vivo
STATED_CONDITIONS: Table II, 4 WAT, 1.12 kg/h
Would you kindly list post-emergent herbicidal activity index for each of these compounds?

[ask] Annotate the compound CC(C#N)OP(=O)(O)CNCC(=O)OCCCl (stereo not shown) with its measured post-emergent herbicidal activity index.
[reply] 2 (50-74% control)

[ask] Annotate the compound `CCOC(=O)CNCP(=O)(O)OCC(Cl)(Cl)Cl` with its measured post-emergent herbicidal activity index.
[reply] 2 (50-74% control)

[ask] Annotate the compound CCCCCOC(=O)CNCP(=O)(O)OC(C)C#N (stereo not shown) [Example 6, hemihydrate] with its measured post-emergent herbicidal activity index.
[reply] 2 (50-74% control)

[ask] Annotate the compound CCOC(=O)CNCP(=O)(O)OC(C)C#N (stereo not shown) with its measured post-emergent herbicidal activity index.
[reply] 2 (50-74% control)

[ask] Annotate the compound CC(C#N)OP(=O)(CNCC#N)OC(C)C#N (stereo not shown) with its measured post-emergent herbicidal activity index.
[reply] 0 (0-24% control)

[ask] Annotate the compound CC(C#N)OP(=O)(O)CNCC(=O)OCc1ccccc1 (stereo not shown) with its measured post-emergent herbicidal activity index.
[reply] 1 (25-49% control)

[ask] Annotate the compound CCOC(=O)CNCP(=O)(OC(C)C#N)OC(C)C#N (stereo not shown) with its measured post-emergent herbicidal activity index.
[reply] 5

[ask] Annotate the compound CCOCCOC(=O)CNCP(=O)(O)OC(C)C#N (stereo not shown) with its measured post-emergent herbicidal activity index.
[reply] 1 (25-49% control)

[ask] Annotate the compound `CCOC(=O)CNCP(=O)(OCCN1CCCC1)OCCN1CCCC1` with its measured post-emergent herbicidal activity index.
[reply] 1 (25-49% control)

[ask] Annotate the compound CCOC(=O)CNCP(=O)(O)OC(C#N)CC (stereo not shown) with its measured post-emergent herbicidal activity index.
[reply] 2 (50-74% control)
